Source: patent US9598447B2

# study_system: delta opioid receptor (Homo sapiens (Human), UniProt P41143)
# Sequence (P41143 whole entry): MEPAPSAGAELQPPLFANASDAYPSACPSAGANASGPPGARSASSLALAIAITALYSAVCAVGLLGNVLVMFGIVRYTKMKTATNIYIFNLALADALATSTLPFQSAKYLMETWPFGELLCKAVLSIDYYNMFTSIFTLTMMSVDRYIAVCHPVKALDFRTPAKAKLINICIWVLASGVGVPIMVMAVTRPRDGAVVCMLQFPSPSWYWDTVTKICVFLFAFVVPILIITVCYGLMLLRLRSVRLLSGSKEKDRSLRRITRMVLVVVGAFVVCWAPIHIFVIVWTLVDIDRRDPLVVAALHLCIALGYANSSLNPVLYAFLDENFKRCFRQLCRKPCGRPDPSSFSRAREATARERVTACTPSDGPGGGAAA
# experiment_summary: In vitro delta-opioid receptor binding assay ([3H]-Naltrindole displacement)

{"chem_smiles": "O=C(NP(=O)(O)O)c1nc2ccccc2n([C@H]2C[C@H]3CCC[C@@H](C2)N3C2CCCCCCC2)c1=O", "Ki": "> 20 µM"}
